IC50: recorded values
Target: UniProt:P22303
Sequence (P22303 whole entry): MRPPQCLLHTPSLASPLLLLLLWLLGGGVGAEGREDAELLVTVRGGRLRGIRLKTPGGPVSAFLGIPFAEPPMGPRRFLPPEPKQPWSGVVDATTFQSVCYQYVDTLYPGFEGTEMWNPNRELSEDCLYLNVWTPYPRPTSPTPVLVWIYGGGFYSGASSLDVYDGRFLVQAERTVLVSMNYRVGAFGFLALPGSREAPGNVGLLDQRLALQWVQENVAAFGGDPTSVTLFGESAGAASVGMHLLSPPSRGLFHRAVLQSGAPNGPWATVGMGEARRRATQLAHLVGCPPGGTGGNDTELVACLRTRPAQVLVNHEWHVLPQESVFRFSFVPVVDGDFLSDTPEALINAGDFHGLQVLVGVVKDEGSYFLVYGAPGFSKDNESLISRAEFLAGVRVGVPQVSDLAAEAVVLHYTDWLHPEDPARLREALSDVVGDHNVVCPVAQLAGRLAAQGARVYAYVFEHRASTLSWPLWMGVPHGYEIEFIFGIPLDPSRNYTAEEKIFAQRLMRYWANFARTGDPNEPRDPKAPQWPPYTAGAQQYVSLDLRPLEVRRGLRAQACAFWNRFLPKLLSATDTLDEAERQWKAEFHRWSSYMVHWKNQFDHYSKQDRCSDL

Check out these entries, answers already filled in.
>>> df
                           smiles_data  readout_kind  reported_value
0         Oc1ccccc1-c1nnc(Nc2ncccn2)o1          IC50       > 5.01 µM
1      Brc1ccc(-c2nnc(Nc3ncccn3)o2)cc1          IC50         3.72 µM
2  c1cnc(Nc2nnc(-c3cccc4ccccc34)o2)nc1          IC50        0.302 µM
3       Cc1ccc(-c2nnc(Nc3ncccn3)o2)cc1          IC50         1.62 µM
4        Clc1ccccc1-c1nnc(Nc2ncccn2)o1          IC50       > 5.01 µM

Recorded IC50 (compound O=[N+]([O-])c1ccc(-c2nnc(Nc3ncccn3)o2)cc1 ): > 5.01 µM

Record Clc1ccc(-c2nnc(Nc3ncccn3)o2)cc1 . Reported IC50: 2.88 µM

According to the records, this compound Oc1ccc(-c2nnc(Nc3ncccn3)o2)cc1 displays IC50 of 1.74 µM

Looking up Fc1ccc(-c2nnc(Nc3ncccn3)o2)cc1 , I found its IC50 recorded as 2.4 µM
